# System: MDA-MB-468 breast
# ASSAY_EXPLANATION: NCI-60 one-dose screen, 48 h (100 = growth as untreated, 0 = no growth, -100 = all killed)
# MEASUREMENT_CONDITIONS: 10 µM unless noted
# Experimental: Growth inhibition of the MDA-MB-468 human Breast tumor cell line is measured as a screen for anti-cancer activity. Cells are grown in 96 well plates and exposed to the test compound for 48 hours. Compounds are tested at a single concentration, which is 10^-5 M for most compounds. The reported endpoint is percent growth (GI% or GIPRCNT), where numbers from 0 - 100% represent growth inhibition, and numbers from -100% - 0 represent cell death. […]
About 83,000 compounds went through this panel and 20% of them were active in at least one assay; those are over-represented in the sample as a whole.
So I've got a bunch of molecules here, and I need their growth values.
Provide the reading as a plain figure in %.

Kindly indicate its recorded growth. Item: CCOC(=O)Cc1cc(Br)c(OCc2ccccc2)c(Br)c1
110

Kindly indicate its recorded growth. Item: C/C(=N/O)c1ccc(NC(=O)Cn2nc(-c3ccc(Cl)cc3)nc2N)cc1
100

Kindly indicate its recorded growth. Item: O=C1C(=O)c2c(nc3ccc(Br)cn23)-c2ccccc21
-58

Kindly indicate its recorded growth. Item: CCOC(=O)C1=C(CCl)N(C)C(=O)NC1c1ccc2c(c1)OCO2 (stereo not given)
24.1

Kindly indicate its recorded growth. Item: COc1ccc(/C=N/NC(=O)CSc2nc(-c3cnccn3)cc(-c3cccs3)c2C#N)cc1
83.1

Kindly indicate its recorded growth. Item: COc1ccc(-c2nn(-c3cccc(Cl)c3)cc2-c2cc(-c3cccs3)[nH]c(=S)n2)cc1
67.8

Kindly indicate its recorded growth. Item: CNC(=O)c1c(I)c(NC(C)=O)c(I)c(C(=O)O)c1I
102

Kindly indicate its recorded growth. Item: COc1ccc(C2CC(c3ccc(Nc4ccnc5cc(Cl)ccc45)cc3)=NN2C(C)=O)cc1 (stereo not given)
65.3

Kindly indicate its recorded growth. Item: CC(=O)N1N=C(c2ccc(C(F)(F)F)c(F)c2)CC1c1[nH]c(C)c(C(=O)NCC(F)(F)F)c1C (stereo not given)
78.5

Kindly indicate its recorded growth. Item: O=C1NC(=O)/C(=C/c2ccc(Cl)cc2Cl)N1
130
